meta.source: patent US10287313B2

Below is a list of entries, each paired with its recorded Tm value.
# assay: Tm of 21-nt RNAs synthesized from various chemistries
# Assay type: physicochemical
# measurement conditions: base sequence r(GCUUGAAGUCUUUAAUUAA)-d(TT)
In the oligonucleotide strings, read from the 5' end, every base follows the letter of its sugar. An asterisk marks phosphorothioate; unmarked linkages are phosphodiester. Other units and linkages are bracketed, terminal groups are in braces. A string of capitals states the bases alone. d = 2'-deoxy (DNA); r = 2'-OH (RNA)
measurement kind: Tm (°C)

substance	assay result
r(GCUUGAAGUCUUUAAUUAA)-d(TT) [ACE] (antisense rGrCrUrUrGrArArGrUrCrUrUrUrArArUrUrArAdTdT) [21-nt antisense siRNA strand from 2′-O-ACE chemistry, crude RNA purchased from Dharmacon]	59.5
r(GCUUGAAGUCUUUAAUUAA)-d(TT) [TOM] (antisense rGrCrUrUrGrArArGrUrCrUrUrUrArArUrUrArAdTdT) [21-nt antisense siRNA strand synthesized from 2′-O-TOM chemistry]	60.1
r(GCUUGAAGUCUUUAAUUAA)-d(TT) [TBDMS] (RNA, 3' dTdT, backbone not given here) [21-nt antisense siRNA strand synthesized from 2′-O-TBDMS chemistry]	59.8
r(GCUUGAAGUCUUUAAUUAA)-d(TT) [ALE] (antisense rGrCrUrUrGrArArGrUrCrUrUrUrArArUrUrArAdTdT) [21-nt antisense siRNA strand synthesized from 2′-O-ALE chemistry]	59.4
